Consider the following compounds; for each one, report its residual activity.
- Assayed System: Solute carrier organic anion transporter family member 1B3 (Homo sapiens, UniProt Q9NPD5)
- Sequence (Q9NPD5 whole entry): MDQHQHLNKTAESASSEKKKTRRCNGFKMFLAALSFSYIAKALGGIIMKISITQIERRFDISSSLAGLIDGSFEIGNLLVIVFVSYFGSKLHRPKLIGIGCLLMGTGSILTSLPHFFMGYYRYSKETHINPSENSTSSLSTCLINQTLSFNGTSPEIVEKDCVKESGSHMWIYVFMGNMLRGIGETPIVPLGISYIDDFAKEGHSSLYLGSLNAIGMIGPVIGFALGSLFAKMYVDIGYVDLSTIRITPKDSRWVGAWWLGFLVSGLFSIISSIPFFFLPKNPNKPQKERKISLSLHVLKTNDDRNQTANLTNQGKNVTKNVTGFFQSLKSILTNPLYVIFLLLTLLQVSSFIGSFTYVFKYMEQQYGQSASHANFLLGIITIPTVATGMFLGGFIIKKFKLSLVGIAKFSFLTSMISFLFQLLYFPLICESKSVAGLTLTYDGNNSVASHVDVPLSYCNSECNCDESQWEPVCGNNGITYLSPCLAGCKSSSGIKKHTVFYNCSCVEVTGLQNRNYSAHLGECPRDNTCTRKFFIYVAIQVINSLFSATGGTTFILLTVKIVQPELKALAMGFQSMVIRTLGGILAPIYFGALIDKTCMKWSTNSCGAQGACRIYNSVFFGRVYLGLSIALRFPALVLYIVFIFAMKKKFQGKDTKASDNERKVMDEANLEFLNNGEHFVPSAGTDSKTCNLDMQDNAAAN
- Stated Conditions: chinese hamster, cho, 10 µM
Quick note: give the figure in %, leave out the unit.

Query: Look at this compound and give its reported residual activity. C=C1CCC(=O)C(C)CCC2C1CC2(C)C (configuration not stated) [DIHYDROCARYOPHYLLEN-5-ONE]
Result: 39.09

Query: # lookup: residual activity of Cc1cc(O)c(C=O)c2c1C(=O)Oc1c(C)c(O)c3c(c1O2)C(O)OC3=O (configuration not stated) [NORSTICTIC ACID]
Result: 1.823

Query: Consider the compound COC(=O)[C@H]1OC(=O)[C@H]2O[C@]23[C@]2(C)[C@H](CC[C@]13C)[C@]1(C)CCC(=O)C(C)(C)[C@@H]1C[C@H]2OC(C)=O and give its measured residual activity.
Result: 97.12

Query: Looking for the measured residual activity of CC[C@H](CC[C@@H](C)[C@H]1CC[C@H]2[C@@H]3CC[C@H]4C[C@@H](O)CC[C@]4(C)[C@H]3CC[C@]12C)C(C)C [STIGMASTANOL] , can you help?
Result: 102.9

Query: residual activity lookup needed for Cc1cccc(C)c1NC(=O)C1CCCCN1C.Cl (configuration not stated) [MEPIVACAINE HYDROCHLORIDE] , thanks.
Result: 96.16

Query: May I ask what residual activity has been recorded for COc1cc2c(cc1OC)[C@@H]1C(=O)c3ccc4oc(C(C)C)cc4c3O[C@@H]1CO2 [ISOROTENONE] ?
Result: 87.44

Query: Entry under review: O[C@@H]1C[C@H]2CCC[C@@H](C1)N2Cc1ccccc1 [N-BENZYLTROPAN-4-OL] . Reported residual activity?
Result: 88.98

----------
- Assayed System: Solute carrier organic anion transporter family member 1B1 (Homo sapiens)
- Sequence (Q9Y6L6 whole entry): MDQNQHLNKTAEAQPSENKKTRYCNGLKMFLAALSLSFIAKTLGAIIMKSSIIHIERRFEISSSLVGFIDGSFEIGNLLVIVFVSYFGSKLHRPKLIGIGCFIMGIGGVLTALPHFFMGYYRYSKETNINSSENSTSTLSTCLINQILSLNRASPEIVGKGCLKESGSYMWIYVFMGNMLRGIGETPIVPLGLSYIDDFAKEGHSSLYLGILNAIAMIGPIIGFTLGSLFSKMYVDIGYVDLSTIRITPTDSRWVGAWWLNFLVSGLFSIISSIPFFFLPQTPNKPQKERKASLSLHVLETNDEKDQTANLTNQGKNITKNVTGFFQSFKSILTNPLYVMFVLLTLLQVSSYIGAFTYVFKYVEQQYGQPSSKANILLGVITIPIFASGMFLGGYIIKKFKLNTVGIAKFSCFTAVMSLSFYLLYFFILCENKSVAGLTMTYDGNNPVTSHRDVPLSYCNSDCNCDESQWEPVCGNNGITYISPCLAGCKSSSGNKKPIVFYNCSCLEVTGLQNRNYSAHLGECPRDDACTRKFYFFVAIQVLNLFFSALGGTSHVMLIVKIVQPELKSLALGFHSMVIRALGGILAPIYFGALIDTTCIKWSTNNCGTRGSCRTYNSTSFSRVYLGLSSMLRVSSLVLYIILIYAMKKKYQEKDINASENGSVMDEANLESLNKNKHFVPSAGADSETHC
- Stated Conditions: chinese hamster, cho, 10 µM
Quantity: residual activity

Query: Query (compound): Br.COc1ccc2c(c1)[C@]13CCCC[C@@H]1[C@H](C2)N(C)CC3.O [DEXTROMETHORPHAN HYDROBROMIDE] ; field requested: residual activity
Result: 49.83%

Query: Data request, read-out residual activity, for CN(C)CCC=C1c2ccccc2CCc2ccccc21.Cl [AMITRIPTYLINE HYDROCHLORIDE]
Result: 53.22%

Query: Item under review: CN(C)CCOC(=O)C(c1ccccc1)C1(O)CCCC1.Cl (centres undefined) [CYCLOPENTOLATE HYDROCHLORIDE] . Reported residual activity?
Result: 87.23%

Query: What does the data say about its residual activity? Entry: CC1=NS(=O)(=O)c2cc(Cl)ccc2N1 [DIAZOXIDE]
Result: 91.81%

Query: Give its residual activity value. Item: CC(C)=CCc1c2c(c(O)c3c(=O)c(O)c(-c4ccccc4)oc13)C=CC(C)(C)O2
Result: 89.94%

Query: Fill blank: measured residual activity of the compound CS(=O)(=O)c1ccc(C2=C(c3ccccc3)C(=O)OC2)cc1 is ____.
Result: 134.4%

Query: I have this compound here, CC[C@H](C)[C@@H](NC)C(=O)O , and I need its recorded residual activity.
Result: 122.8%

Query: Entry under review: CCOC(=O)C(C)(C)Oc1ccc(Cl)cc1 [CLOFIBRATE] . Reported residual activity?
Result: 114.7%

Query: Please report the recorded residual activity for COc1cc(O)c(C)c(O)c1 [2,6-DIHYDROXY-4-METHOXYTOLUENE] .
Result: 108.8%
